Tested on: sorbitol accumulation in rat lens
Test: Lens culture and intracellular sorbitol measurement (ex vivo)
Type: cell-based, Sprague-Dawley rats
Conditions: Rattus norvegicus, 144 h, 25 mM glucose, 6 days, sample 5 μg/mL, mean ± SD (n = 3)
measurement_kind: inhibition at 5 µg/mL (%)
Kindly answer with a numeric value in %, unit omitted.

>>> meas_value("CC(C)=CCC[C@](C)(O)C1CC[C@]2(C)[C@@H]1[C@H](O)CC1[C@@]3(C)CC[C@H](O)C(C)(C)C3CC[C@]12C (some centres unmarked)")
96.5
>>> meas_value("CC(C)=CCCC(C)(O)C1CCC2(C)C1C(O)CC1C3(C)CCC(O)C(C)(C)C3C(OC3OC(CO)C(O)C(O)C3OC3OC(C)C(O)C(O)C3O)CC12C [(20S) ginsenoside Rg2]")
57.5

Give inhibition at 5 µg/mL (sorbitol accumulation in rat lens) of the following compound: CC(C)=CCC[C@](C)(O)[C@H]1CC[C@]2(C)[C@@H]1[C@H](O)C[C@@H]1[C@@]3(C)CC[C@H](O)C(C)(C)[C@@H]3[C@@H](O[C@@H]3O[C@H](CO)[C@@H](O)[C@H](O)[C@H]3O[C@@H]3O[C@H](CO)[C@@H](O)[C@H](O)[C@H]3O)C[C@]12C [Ginsenoside Rf]
83.7

Try CC(C)=CCC[C@](C)(O)[C@H]1CC[C@]2(C)[C@@H]1[C@H](O)C[C@@H]1[C@@]3(C)CC[C@H](O)C(C)(C)[C@@H]3[C@@H](O)C[C@]12C next.
94.8

Request: CC(C)=CCCC(C)(O)C1CCC2(C)C1C(O)CC1C3(C)CCC(OC4OC(CO)C(O)C(O)C4OC4OC(CO)C(O)C(O)C4O)C(C)(C)C3CCC12C [(20R) ginsenoside Rg3]
48.2

Another compound to look at: CC(C)=CCC[C@](C)(O)C1CC[C@]2(C)[C@@H]1[C@H](O)CC1[C@@]3(C)CC[C@H](O[C@@H]4O[C@H](CO)[C@@H](O)[C@H](O)[C@H]4O[C@@H]4O[C@H](CO)[C@@H](O)[C@H](O)[C@H]4O)C(C)(C)C3CC[C@]12C (stereo partly drawn) [(20S) ginsenoside Rg3]
78.5

Queued: CC(C)=CCC[C@](C)(O[C@@H]1O[C@H](CO)[C@@H](O)[C@H](O)[C@H]1O)C1CC[C@]2(C)[C@@H]1[C@H](O)CC1[C@@]3(C)CC[C@H](O)C(C)(C)C3CC[C@]12C (some centres unmarked)
73.2

Entry O=c1c(O)c(-c2ccc(O)c(O)c2)oc2cc(O)cc(O)c12 [Quercetin, reference compound] please
87.2

====

Target: human recombinant aldose reductase (HRAR) (Homo sapiens)
Construct: purchased Wako Chemicals (Osaka, Japan)
Experiment: HRAR inhibition assay (DL-glyceraldehyde substrate)
Type: biochemical
Details: substrate DL-glyceraldehyde; mean ± S.E.M. of triplicate experiments; read-out: HRAR IC50
Examples of compounds with documented pIC50 follow.
The quantity pIC50 is defined as the negative base-10 logarithm of the molar concentration.

>>> meas_value("CC(C)=CCC[C@](C)(O[C@@H]1O[C@H](CO[C@@H]2OC[C@H](O[C@@H]3OC[C@@H](O)[C@H](O)[C@H]3O)[C@H](O)[C@H]2O)[C@@H](O)[C@H](O)[C@H]1O)[C@H]1CC[C@]2(C)[C@@H]1[C@H](O)C[C@@H]1[C@@]3(C)CC[C@H](O[C@@H]4O[C@H](CO)[C@@H](O)[C@H](O)[C@H]4O[C@@H]4O[C@H](CO)[C@@H](O)[C@H](O)[C@H]4O)C(C)(C)[C@@H]3CC[C@]12C [Ginsenoside Ra1]")
4.12

Report pIC50 for CC(C)=CCC[C@](C)(O)C1CC[C@]2(C)[C@@H]1[C@H](O)CC1[C@@]3(C)CC[C@H](O)C(C)(C)C3CC[C@]12C (stereo partly drawn) please.
6.44

====

Biological target: human recombinant aldose reductase (HRAR) (Homo sapiens, UniProt P15121)
Construct: purchased Wako Chemicals (Osaka, Japan)
Experiment: HRAR inhibition assay (DL-glyceraldehyde substrate)
Format: biochemical
Conditions: substrate DL-glyceraldehyde; mean ± S.E.M. of triplicate experiments; read-out: HRAR IC50
measurement_kind: pIC50
// field semantics: pIC50 = negative decimal log of concentration (mol/L)

>>> meas_value("CC(C)=CCC[C@](C)(O)[C@H]1CC[C@]2(C)[C@@H]1[C@H](O)C[C@@H]1[C@@]3(C)CC[C@H](O)C(C)(C)[C@@H]3[C@@H](O)C[C@]12C")
5.84

Now for the compound whose pIC50 we want.
What value of pIC50 has been reported for the following compound? CC(C)=CCC[C@](C)(O[C@@H]1O[C@H](CO[C@@H]2OC[C@@H](O)[C@H](O)[C@H]2O)[C@@H](O)[C@H](O)[C@H]1O)[C@H]1CC[C@]2(C)[C@@H]1[C@H](O)C[C@@H]1[C@@]3(C)CC[C@H](O[C@@H]4O[C@H](CO)[C@@H](O)[C@H](O)[C@H]4O[C@@H]4O[C@H](CO)[C@@H](O)[C@H](O)[C@H]4O)C(C)(C)[C@@H]3CC[C@]12C [Ginsenoside Rb3]
4.10
